Value source: PubChem BioAssay AID330

- Tested on: P388 leukemia ip, CD2F1 mice, survival T/C
- EXPERIMENT DESCRIPTION: NCI In Vivo Anticancer Drug Screen. Data for tumor model P388 Leukemia (intraperitoneal) in CD2F1 (CDF1) mice
- REPORTED CONDITIONS: endpoint: median survival time; dose: 50.0 mg/kg/injection; schedule: Q01DX005 (ip); vehicle: Klucel (hydroxypropylcellulose) (HPC); higher = longer survival
Toxic doses and inconclusive results are not listed.
METRIC: T/C

// below: answered compounds
COMPOUND | T/C
C[C@@]12CCC[C@@](C)(C(=O)O)[C@H]1CC[C@]13C[C@@H](CO)[C@@H](CC[C@H]12)C3 | 99 % of control
Oc1ccccc1C=Nc1ccccc1N=Cc1ccccc1O.[Cu] | 99 % of control
Cc1cc(C)c2c(c1)CC(C)(C)CC2(O)C1CCCCN1 (centres undefined) | 100 % of control

Quick one: T/C for CC1(C)OC2OC(/C=N\NC(=O)c3cc4cc(OCc5ccccc5)ccc4[nH]3)C3OC(C)(C)OC3C2O1 (centres undefined) ?
102 % of control
